Provide the reported pIC50 of each item.
Target: testosterone 5α-reductase prepared from rat prostates
Assay: Testosterone 5α-reductase assay ([1,2,6,7-3H]testosterone as substrate);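 also: conversion of tritiated testosterone to 5α-dihydrotestosterone, separated by TLC and scintillation counted, relative to enzyme control without test sample after subtracting substrate blank without enzyme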
Settings: read-out: IC50 (5α-reductase inhibitory activity); rat prostatic testosterone 5α-reductase
Answers are plain numbers, as −log10 of the molar value.

CC(=NO)[C@H]1CC[C@H]2[C@@H]3CCC4NC(=O)C=C[C@]4(C)[C@H]3CC[C@]12C (stereo partly drawn) : 7.96
CC(=NO)[C@H]1CC[C@H]2[C@@H]3CCC4NC(=O)CC[C@]4(C)[C@H]3CC[C@]12C (stereo partly drawn) : 8.00

Now take the following compound into account.
Exercise: Item CC(=O)[C@H]1CC[C@H]2[C@@H]3CCC4=CC(=O)CC[C@]4(C)[C@H]3CC[C@]12C [Compound 1, 4-pregnene-3,20-dione, reference compound] has what recorded pIC50?
Solution: 8.19
